System: MDA-MB-231
TEST: Antiproliferative activity against human MDA-MB-231 cells assessed as inhibition of cell proliferation measured by MTT assay
Type: functional, cell-based
REPORTED_ENDPOINT: IC50 (µM)
Please reply with the bare figure in µM and do not write the unit itself.

The following compounds have reported results that may help.
STRUCTURE_NOTATION: COC(=O)/C(=C/c1ccc(F)cc1)C[P+](c1ccc(OC)cc1)(c1ccc(OC)cc1)c1ccc(OC)cc1
IC50 [µM]: 7.41
--
STRUCTURE_NOTATION: COC(=O)/C(=C/c1ccc([N+](=O)[O-])cc1)C[P+](c1ccc(OC)cc1)(c1ccc(OC)cc1)c1ccc(OC)cc1
IC50 [µM]: 8.29
--
STRUCTURE_NOTATION: COC(=O)/C(=C/c1ccc(OC)cc1)C[P+](c1ccc(OC)cc1)(c1ccc(OC)cc1)c1ccc(OC)cc1.[Br-]
IC50 [µM]: 3.7
--
STRUCTURE_NOTATION: COC(=O)/C(=C/c1ccc(Br)cc1)C[P+](c1ccc(OC)cc1)(c1ccc(OC)cc1)c1ccc(OC)cc1
IC50 [µM]: 1.91
--
STRUCTURE_NOTATION: C=C(C[P+](c1ccc(F)cc1)(c1ccc(F)cc1)c1ccc(F)cc1)C(=O)OC
IC50 [µM]: 91.1

Task: GET /values?readout=IC50&system=MDA-MB-231&item= COC(=O)/C(=C/c1ccc(Cl)cc1)C[P+](c1ccc(OC)cc1)(c1ccc(OC)cc1)c1ccc(OC)cc1
Result: 3.01

Task: GET /values?readout=IC50&system=MDA-MB-231&item= COc1ccc([P+](C/C(=C\c2ccc(Br)cc2)C(=O)OC(C)(C)C)(c2ccc(OC)cc2)c2ccc(OC)cc2)cc1
Result: 2.1

Task: GET /values?readout=IC50&system=MDA-MB-231&item= C=C(C[P+](c1ccc(C)cc1)(c1ccc(C)cc1)c1ccc(C)cc1)C(=O)OC
Result: 3.79

* * *

Tested on: 4T1
TEST: Antiproliferative activity against mouse 4T1 cells assessed as inhibition of cell proliferation measured by MTT assay
Type: functional, cell-based
# strict inequality: IC50 < 5 µM yields 1 (yes), everything else yields 0 (no)

STRUCTURE_NOTATION: COC(=O)/C(=C/c1ccc(F)cc1)C[P+](c1ccc(OC)cc1)(c1ccc(OC)cc1)c1ccc(OC)cc1
LABEL_CLASS: 1 (yes)

STRUCTURE_NOTATION: C=C(C[P+](c1ccc(OC)cc1)(c1ccc(OC)cc1)c1ccc(OC)cc1)C(=O)OC
LABEL_CLASS: 1 (yes)

STRUCTURE_NOTATION: COC(=O)/C(=C/c1ccc(C)cc1)C[P+](c1ccc(OC)cc1)(c1ccc(OC)cc1)c1ccc(OC)cc1
LABEL_CLASS: 0 (no)

STRUCTURE_NOTATION: C=C(C[P+](c1ccccc1)(c1ccccc1)c1ccccc1)C(=O)OC(C)(C)C
LABEL_CLASS: 1 (yes)

STRUCTURE_NOTATION: C=C(C[P+](c1ccccc1)(c1ccccc1)c1ccccc1)C(=O)OC
LABEL_CLASS: 0 (no)

Task: Given C=C(C[P+](c1ccccc1)(c1ccccc1)c1ccccc1)C(=O)N(C)C , is recorded IC50 strictly lower than 5 µM?
Result: 0 (no)

Task: Given C=C(C[P+](c1ccc(C)cc1)(c1ccc(C)cc1)c1ccc(C)cc1)C(=O)OC , is recorded IC50 strictly lower than 5 µM?
Result: 1 (yes)

* * *

Test system: MDA-MB-231
TEST: Antiproliferative activity against human MDA-MB-231 cells assessed as inhibition of cell proliferation measured by MTT assay
Assay type: functional, cell-based
REPORTED_ENDPOINT: IC50

The following molecules have reported results that may help.
STRUCTURE_NOTATION: C=C(C[P+](c1ccc(OC)cc1)(c1ccc(OC)cc1)c1ccc(OC)cc1)C(=O)OC
TESTED_TARGET: MDA-MB-231
IC50: 4.87 µM
//
STRUCTURE_NOTATION: C=C(C[P+](c1ccccc1)(c1ccccc1)c1ccccc1)C(=O)OC(C)(C)C
TESTED_TARGET: MDA-MB-231
IC50: 2.88 µM
//
STRUCTURE_NOTATION: COC(=O)/C(=C/c1ccc(C)cc1)C[P+](c1ccc(OC)cc1)(c1ccc(OC)cc1)c1ccc(OC)cc1
TESTED_TARGET: MDA-MB-231
IC50: 9.79 µM
//
STRUCTURE_NOTATION: C=C(C[P+](c1ccccc1)(c1ccccc1)c1ccccc1)C(=O)N(C)C
TESTED_TARGET: MDA-MB-231
IC50: > 100 µM
//
STRUCTURE_NOTATION: C=C(C[P+](c1ccccc1)(c1ccccc1)c1ccccc1)C(=O)OC
TESTED_TARGET: MDA-MB-231
IC50: 28.9 µM
//
STRUCTURE_NOTATION: C=C(C[P+](c1ccc(OC)cc1)(c1ccc(OC)cc1)c1ccc(OC)cc1)C(=O)OC(C)(C)C
TESTED_TARGET: MDA-MB-231
IC50: 2.69 µM
//
STRUCTURE_NOTATION: COC(=O)/C(=C/c1ccc(C#N)cc1)C[P+](c1ccc(OC)cc1)(c1ccc(OC)cc1)c1ccc(OC)cc1
TESTED_TARGET: MDA-MB-231
IC50: 12.5 µM

Could you now look at the following molecule, please?
Task: Could you tell me which IC50 is on file for COC(=O)/C(=C/c1ccccc1)C[P+](c1ccc(OC)cc1)(c1ccc(OC)cc1)c1ccc(OC)cc1 ?
Result: 9.27 µM

* * *

System: 4T1
TEST: Antiproliferative activity against mouse 4T1 cells assessed as inhibition of cell proliferation measured by MTT assay
Format: functional, cell-based
Recorded pIC50, one value per entry.
pIC50 is a log-scale quantity: -log10 of the concentration expressed in molar.

The following compounds have reported results that may help.
STRUCTURE_NOTATION: C=C(C[P+](c1ccc(F)cc1)(c1ccc(F)cc1)c1ccc(F)cc1)C(=O)OC
pIC50: 4.21
--
STRUCTURE_NOTATION: COC(=O)/C(=C/c1ccc([N+](=O)[O-])cc1)C[P+](c1ccc(OC)cc1)(c1ccc(OC)cc1)c1ccc(OC)cc1
pIC50: 5.33
--
STRUCTURE_NOTATION: COC(=O)/C(=C/c1ccc(OC)cc1)C[P+](c1ccc(OC)cc1)(c1ccc(OC)cc1)c1ccc(OC)cc1.[Br-]
pIC50: 5.47
--
STRUCTURE_NOTATION: COc1ccc([P+](C/C(=C\c2ccc(Br)cc2)C(=O)OC(C)(C)C)(c2ccc(OC)cc2)c2ccc(OC)cc2)cc1
pIC50: 6.07
--
STRUCTURE_NOTATION: COC(=O)/C(=C/c1ccc(Br)cc1)C[P+](c1ccc(OC)cc1)(c1ccc(OC)cc1)c1ccc(OC)cc1
pIC50: 5.92
--
STRUCTURE_NOTATION: C=C(C[P+](c1ccc(OC)cc1)(c1ccc(OC)cc1)c1ccc(OC)cc1)C(=O)OC(C)(C)C
pIC50: 5.97

Task: Could you tell me which pIC50 is on file for COC(=O)/C(=C/c1ccccc1)C[P+](c1ccc(OC)cc1)(c1ccc(OC)cc1)c1ccc(OC)cc1 ?
Result: 5.14

Task: Could you tell me which pIC50 is on file for COC(=O)/C(=C/c1ccc(Cl)cc1)C[P+](c1ccc(OC)cc1)(c1ccc(OC)cc1)c1ccc(OC)cc1 ?
Result: 6.01

Task: Could you tell me which pIC50 is on file for COC(=O)/C(=C/c1ccc(C#N)cc1)C[P+](c1ccc(OC)cc1)(c1ccc(OC)cc1)c1ccc(OC)cc1 ?
Result: 4.69
